Ref: patent US6949648B2

Reported melting point values for the following molecules.

molecule	melting point
Cc1nn(-c2ccccn2)c2nc3ccc(F)c(F)c3c(Cl)c12 [Example 2-88]	240 to 242 °C
Cc1nn(-c2ccccn2)c2[nH]c3c(F)cccc3c(=O)c12 [Example 2-85]	241 °C
Cc1nn(-c2ccccn2)c2nc3cc(F)c(Cl)cc3c(Cl)c12 [Example 2-98]	211 °C
CCOc1cccc(-n2nc(C)c3c(Cl)c4cccc(C)c4nc32)n1 [Example 2-128]	151 to 153 °C
Cc1nn(-c2ccccn2)c2[nH]c3ccc(F)c(F)c3c(=O)c12 [Example 2-89]	300 to 303 °C
Cc1cccnc1-n1nc(C)c2c(N)c3cccc(C)c3nc21 [Example 2-134]	199 to 202 °C
Cc1nn(-c2ccncc2)c2nc3ccccc3c(Cl)c12 [Example 2-140]	165 to 168 °C
Cc1nn(-c2ccccn2)c2[nH]c3ccc(N(C)C)cc3c(=O)c12 [Example 2-56]	171 to 173 °C
Cc1cccnc1-n1nc(C)c2c(Cl)c3c(C)cccc3nc21 [Example 2-123]	176 to 178 °C
Cc1nn(-c2ccccn2)c2nc3ccc([N+](=O)[O-])cc3c(Cl)c12 [Example 2-53]	282 °C
CSc1ccc2nc3c(c(C)nn3-c3ccccn3)c(Cl)c2c1 [Example 2-49]	182 °C
Cc1cccnc1-n1nc(C)c2c(=O)c3c(C)cccc3[nH]c21 [Example 2-125]	195 to 197 °C
CCOc1cccc(-n2nc(C)c3c(N)c4cccc(C)c4nc32)n1 [Example 2-129]	184 to 187 °C
Fc1cc2nc3c(cnn3-c3ccccn3)c(Cl)c2cc1F [Example 2-198]	167 to 168 °C
Cc1nn(-c2ccccn2)c2ncc(C(=O)Nc3ccc(F)cc3)c(O)c12 [Example 1-14]	> 300 °C
Cc1nn(-c2ccccn2)c2nc3cc(Cl)c(F)cc3c(Cl)c12 [Example 2-96]	214 to 215 °C
COC(=O)c1ccc2nc3c(c(C)nn3-c3ccccn3)c(Cl)c2c1 [Example 2-63]	199 to 200 °C
Cc1nn(-c2cccnc2)c2[nH]c3ccccc3c(=O)c12 [Example 2-138]	282 to 283 °C
CCc1nn(-c2ccccn2)c2nc3ccccc3c(N)c12.Cl	249 to 252 °C
